protocol notes: Physiological stability of the compound at pH 1 assessed as compound remaining after 4 hrs in presence of 20% acetonitrile
Type: physicochemical
condition: read-out: Stability
measured property: remaining at 4 h
Include the unit right after the number.

Enquiry: Specify reported remaining at 4 h for the compound shown: O=C(O)c1c(O)c(C2(c3ccc(Cl)cc3)CC2)nc2c(C(F)(F)F)cccc12
Return: 101%

###

# bioavailability listing for each entry below
protocol notes: Oral bioavailability in Sprague-Dawley rat at 10 mg/kg
Format: ADME, organism-based
condition: in vivo
I'd appreciate it if you wrote the number followed by its unit.

Examples with their reported bioavailability follow.
substance smiles: O=C(O)c1c(O)c(C2(c3ccc(Cl)cc3)CC2)nc2c(C(F)(F)F)cccc12
bioavailability: 67%

substance smiles: O=C(O)c1c(O)c(C2(c3ccc(C(F)(F)F)cc3)CC2)nc2c(C(F)(F)F)cccc12
bioavailability: 31%

Enquiry: Consider the molecule O=C(O)c1c(O)c(C2(c3ccccc3)CC2)nc2c(C(O)(C(F)(F)F)C(F)(F)F)cccc12 . State its measured bioavailability.
Return: 44%

Enquiry: Hello, please tell me recorded bioavailability for this one: O=C(O)c1c(O)c(C2Cc3ccccc3C2)nc2c(C(F)(F)F)cccc12
Return: 49%

Enquiry: Give bioavailability for O=C(O)c1c(O)c(C2(c3ccccc3)CC2)nc2c3c(ccc12)CCCC3
Return: 45%
